recorded-metric: melting point

Known melting point results, listed for orientation:
Challenge: Reported melting point, molecule O=C1C[C@@H]2[C@@H](/C=C/[C@@H](O)COc3cccc(Cl)c3)[C@H](OC(=O)c3ccccc3)C[C@@H]2O1 : ____
Response given: 101 to 102 °C

Challenge: Reported melting point, molecule COc1cc2c(c(Cl)c1Cl)C(=O)C(C)(C)C2 : ____
Response given: 142 °C

Challenge: Reported melting point, molecule Nc1ncc(Cc2csc3ccccc23)c(N)n1 : ____
Response given: 220 to 222 °C

Challenge: Reported melting point, molecule CSC(=NC(=O)OC(C)(C)C)NNC(=O)NC(=O)OCc1ccccc1 : ____
Response given: 120 to 123 °C

Challenge: Reported melting point, molecule O=C(O)Cc1ccc(-c2cn3cccnc3n2)cc1 : ____
Response given: 264 to 265 °C

Challenge: Reported melting point, molecule COc1ccc2c(c1)OC(CN1CC=C(c3c[nH]c4ccccc34)CC1)CO2 (stereo unspecified) : ____
Response given: 166 to 168 °C

Challenge: Reported melting point, molecule CN(C)CCCc1c[nH]c(-c2ccc(F)cc2)c1-c1ccncc1 : ____
Response given: 177 to 179 °C

Challenge: Reported melting point, molecule CC(C)(C)C(=O)C(=Cc1ccc(Cl)cc1)n1cncn1 : ____
Response given: 82 °C

Challenge: Reported melting point, molecule N#CCOc1c(Br)cc(Br)cc1C=O : ____
Response given: 125 to 130 °C

Challenge: Reported melting point, molecule CCN1CCN(c2nccc(Oc3ccc(NC(=O)c4cc(F)cc(N5CCCCC5)c4)c4ccccc34)n2)CC1 : ____
Response given: 86 to 87 °C

Next item in the queue.
Challenge: Reported melting point, molecule CC1(C)N=C(c2ccccc2F)c2cc([N+](=O)[O-])cc(Cl)c2NC1=O : ____
Response given: 142 to 143 °C

----------
// reported melting point per item

Known melting point results, listed for orientation:
Challenge: Reported melting point, compound c1ccc(C2=NC(c3ccccc3)C3=C(N2)c2nc(-c4ccccc4)cc(-c4ccccc4)c2CC3)cc1 (stereo unspecified) : ____
Response given: 142 to 144 °C

Challenge: Reported melting point, compound O=C(N[C@H]1CC[C@H](CCN2CCC(c3cccc4c3CCO4)CC2)CC1)C(F)(F)F : ____
Response given: 173 °C

Challenge: Reported melting point, compound CN1Cc2cc(F)ccc2-n2c(c(C#CC(C)(O)C3CC3)[nH]c2=O)C1 (stereo unspecified) : ____
Response given: 191 to 192 °C

Challenge: Reported melting point, compound Nc1ccncc1Nc1ccc2[nH]ccc2c1 : ____
Response given: 83 to 90 °C

Others:
Challenge: Reported melting point, compound O=C1NCCN1CCNc1cc(-c2ccncc2)c(-c2ccccc2)nn1 : ____
Response given: 206 to 207 °C

Challenge: Reported melting point, compound CN(C)CC=Cc1ccc2c(c1)CCN2C(=O)c1ccc(-c2ccccc2)cc1 : ____
Response given: 174 to 176 °C

Challenge: Reported melting point, compound COc1cc(C(=O)N2Cc3ccc(C(=O)NCc4ccc(C)cc4)n3Cc3ccccc32)ccc1-c1ccccc1C : ____
Response given: 179 to 180 °C

Challenge: Reported melting point, compound Cc1noc(-c2ccc(CN3C(=O)C4(COc5cc6c(cc54)OCCO6)c4ccccc43)cc2)n1 (stereo unspecified) : ____
Response given: 177 to 178 °C

Challenge: Reported melting point, compound Cc1ccc(S(=O)(=O)N(CCO)CCN(CCN(CCO)S(=O)(=O)c2ccc(C)cc2)S(=O)(=O)c2ccc(C)cc2)cc1 : ____
Response given: 110 to 112 °C

Challenge: Reported melting point, compound Cc1ccc(C(C)C)c(-n2cc(-c3ccccc3)c(C)c2Cl)c1 : ____
Response given: 103 °C

Challenge: Reported melting point, compound CCC(CC)(CCCCS(N)(=O)=O)COc1nn2ncnc2cc1C : ____
Response given: 132 to 133 °C
